# measured.on: Tubulin (Homo sapiens) (UniProt P68371+Q9H4B7+P0DPH7+P68366+Q13509+Q71U36+P04350+Q3ZCM7+P07437+P68363+Q9BQE3+Q6PEY2+Q13885+Q9BVA1+Q9BUF5)
# assay.procedure: Inhibition of purified tubulin (unknown origin) assessed as critical concentration of tubulin required to produce assembly at 25 uM after 30 mins by spectrophotometry
# Type: protein-complex assay
Give measured Activity for each item. Keep answers brief.

chem.smiles | test.result
CC(=O)O[C@@]12CO[C@@H]1C[C@H](O)[C@@]1(C)C(=O)[C@H](O)C3=C(C)[C@@H](OC(=O)[C@H](O)[C@@H](NC(=O)OC(C)(C)C)c4ccccc4)C[C@@](O)([C@@H](OC(=O)c4ccccc4)[C@H]21)C3(C)C | 0.9 µM
COc1cc2c(c(OC)c1OC)-c1ccc(OC)c(=O)cc1[C@@H](NC(=O)CCCC(=O)OCCCCC[C@@H]1CC=CC(=O)O1)CC2 | 6.6 µM
C/C=C/C[C@H](C)[C@@H](OC)[C@@H](C)[C@H](O)C[C@H]1OC(=O)C=C[C@H]1CC | > 15 µM

API: the following record is the query input.
IN: Specify measured Activity for COc1cc2c(c(OC)c1OC)-c1ccc(OC)c(=O)cc1[C@@H](NC(=O)CCCCCCCCCCC(=O)OCCCCC[C@@H]1CC=CC(=O)O1)CC2 .
OUT: 6.3 µM

---

# assay.procedure: Selectivity ratio of IC50 for human HEK293 cells to IC50 for human HT29 cells
# Assay type: ADME, cell-based
# condition.context: HEK293 cells versus HT29 cells, read-out: Ratio IC50
Give measured selectivity ratio for each item. Keep answers brief.
Answers are plain numbers.

compound | selectivity ratio
COc1cc2c(c(OC)c1OC)-c1ccc(OC)c(=O)cc1[C@@H](NC(=O)CCCCCCCCCCC(=O)OCCCCC[C@H]1CC=CC(=O)O1)CC2 | 0.6
C/C=C/C[C@H](C)[C@@H](OC)[C@@H](C)[C@H](O)C[C@H]1OC(=O)C=C[C@H]1CC [PIRONETIN] | 2.6
COc1cc2c(c(OC)c1OC)-c1ccc(OC)c(=O)cc1[C@@H](NC(=O)CCCC(=O)OCCCCC[C@@H]1CC=CC(=O)O1)CC2 | 0.3

API: the following record is the query input.
IN: Specify measured selectivity ratio for COc1cc2c(c(OC)c1OC)-c1ccc(OC)c(=O)cc1[C@@H](NC(=O)CCCCCCC(=O)OCCCCC[C@@H]1CC=CC(=O)O1)CC2 .
OUT: 1.6

---

Give measured pIC50 for each item. Keep answers brief.
# Tested on: HT-29
# assay.procedure: Cytotoxicity against human HT-29 cells after 3 days by MTT assay
# Format: functional, cell-based
# condition.context: HT-29, 72 h
Answers are plain numbers, as −log10 of the molar value.

In the examples that follow, each entry is paired with its recorded pIC50.
compound | value.kind | test.result
COc1cc2c(c(OC)c1OC)-c1ccc(OC)c(=O)cc1[C@@H](NC(=O)CCCC(=O)OCCCCC[C@H]1CC=CC(=O)O1)CC2 | pIC50 | 4.19
COc1cc2c(c(OC)c1OC)-c1ccc(OC)c(=O)cc1[C@@H](NC(=O)CCCCCCCCCCCCCCC(=O)OCCCCC[C@H]1CC=CC(=O)O1)CC2 | pIC50 | 4.52

For every listed record, write down its pIC50.
1. COc1cc2c(c(OC)c1OC)-c1ccc(OC)c(=O)cc1[C@@H](NC(=O)CCCC(=O)OCCCCC[C@@H]1CC=CC(=O)O1)CC2
2. COc1cc2c(c(OC)c1OC)-c1ccc(OC)c(=O)cc1[C@@H](NC(=O)CCCCCCCCCCC(=O)OCCCCC[C@@H]1CC=CC(=O)O1)CC2
3. COc1cc2c(c(OC)c1OC)-c1ccc(OC)c(=O)cc1[C@@H](NC(=O)CCCCCCCCCCC(=O)OCCCCC[C@H]1CC=CC(=O)O1)CC2

OUT:
4.68
4.74
4.40

For every listed record, write down its pIC50.
1. COc1cc2c(c(OC)c1OC)-c1ccc(OC)c(=O)cc1[C@@H](NC(=O)CCCCCCC(=O)OCCCCC[C@H]1CC=CC(=O)O1)CC2
2. COc1cc2c(c(OC)c1OC)-c1ccc(OC)c(=O)cc1[C@@H](NC(=O)CCCCCCC(=O)OCCCCC[C@@H]1CC=CC(=O)O1)CC2

OUT:
1: 4.40; 2: 4.70

For every listed record, write down its pIC50.
1. COc1cc2c(c(OC)c1OC)-c1ccc(OC)c(=O)cc1[C@@H](NC(=O)CCCCCCCCCCCCCCC(=O)OCCCCC[C@@H]1CC=CC(=O)O1)CC2
2. COc1cc2c(c(OC)c1OC)-c1ccc(OC)c(=O)cc1[C@@H](NC(C)=O)CC2 [COLCHICINE]

OUT:
1. 5.10
2. 7.30
